Data origin: patent US9771316B2

system-name: human LAT-1 (Homo sapiens (Human), UniProt Q01650)
Sequence (Q01650 whole entry): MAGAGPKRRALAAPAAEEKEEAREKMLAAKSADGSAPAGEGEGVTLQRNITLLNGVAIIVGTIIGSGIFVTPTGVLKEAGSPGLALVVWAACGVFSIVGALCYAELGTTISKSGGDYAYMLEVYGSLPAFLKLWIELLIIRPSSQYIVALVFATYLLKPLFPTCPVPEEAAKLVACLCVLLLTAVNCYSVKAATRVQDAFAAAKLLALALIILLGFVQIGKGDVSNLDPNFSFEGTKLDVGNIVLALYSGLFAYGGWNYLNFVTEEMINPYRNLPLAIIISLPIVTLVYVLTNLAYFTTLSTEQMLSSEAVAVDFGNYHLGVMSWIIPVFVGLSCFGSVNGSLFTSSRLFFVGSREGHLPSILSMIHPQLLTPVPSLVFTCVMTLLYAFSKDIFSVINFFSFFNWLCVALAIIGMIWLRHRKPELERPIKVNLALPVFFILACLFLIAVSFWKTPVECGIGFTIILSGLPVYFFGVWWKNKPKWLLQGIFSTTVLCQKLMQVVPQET
Sequence (P08195 102-630 partner): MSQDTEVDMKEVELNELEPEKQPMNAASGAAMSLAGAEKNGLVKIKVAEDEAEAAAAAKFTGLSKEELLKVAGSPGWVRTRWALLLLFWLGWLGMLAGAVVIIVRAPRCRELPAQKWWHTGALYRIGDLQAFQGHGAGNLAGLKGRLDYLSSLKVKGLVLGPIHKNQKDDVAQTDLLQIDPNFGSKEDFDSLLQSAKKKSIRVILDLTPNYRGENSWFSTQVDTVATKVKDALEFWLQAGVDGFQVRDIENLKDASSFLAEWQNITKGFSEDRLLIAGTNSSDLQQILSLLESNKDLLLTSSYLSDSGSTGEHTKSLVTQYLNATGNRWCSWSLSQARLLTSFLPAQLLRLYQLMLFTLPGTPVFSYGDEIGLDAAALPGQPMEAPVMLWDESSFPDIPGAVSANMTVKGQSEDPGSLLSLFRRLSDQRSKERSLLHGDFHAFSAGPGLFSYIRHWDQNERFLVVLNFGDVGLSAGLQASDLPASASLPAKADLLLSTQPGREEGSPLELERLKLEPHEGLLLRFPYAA
assay-notes: Inhibition of [14C]L-leucine uptake into human LAT-1 stably expressing HEK293 cell line (uptake buffer, 1 min)
Assay type: cell-based
condition-notes: HEK293 human LAT-1 stably expressing cells; Na+-free HBSS pH7.4; [14C]L-leucine or alanine 1 μM, uptake 1 min; read-out: LAT-1 inhibitory activity/IC50
pIC50: −log10 of the molar value. Structures can show the parent of a compound that is named as a salt.
readout-type: pIC50

Below, 3 compounds whose answers are already recorded.
• CCC(C)c1ccc(OC(CCCCN)c2cccs2)cc1 (centres unmarked) = 3.58
• NCCCCC(Oc1ccc(C(F)(F)F)cc1)c1ccccc1 (centres unmarked) = 4.24
• NCCCC[C@@H](Oc1ccc(C(F)(F)F)c(F)c1)c1ccccc1.O=C(O)/C=C/C(=O)O [Example 68, fumarate] = 4.44

I = NCCCCC(Oc1ccc(C(F)(F)F)c(F)c1)c1cccs1 (centres unmarked)
II = NCCCC[C@@H](Oc1ccc(C(F)(F)F)cc1)c1ccccc1 [Example 66, fumarate]
III = NCCCC[C@@H](Oc1ccc(OC(F)(F)F)cc1)c1ccccc1.O=C(O)/C=C/C(=O)O [Example 70, fumarate]
Please list these compounds in decreasing order of pIC50. Write the labels in rank order as requested.
III, II, I
